Tested on: NCI/ADR-RES ovarian
Assay: NCI-60 one-dose screen, 48 h (100 = growth as untreated, 0 = no growth, -100 = all killed)
Details: 10 µM unless noted
Protocol: Growth inhibition of the NCI/ADR-RES human […] tumor cell line is measured as a screen for anti-cancer activity. Cells are grown in 96 well plates and exposed to the test compound for 48 hours. Compounds are tested at a single concentration, which is 10^-5 M for most compounds. The reported endpoint is percent growth (GI% or GIPRCNT), where numbers from 0 - 100% represent growth inhibition, and numbers from -100% - 0 represent cell death. For example, a value of 40 represents 60% growth inhibition. […]
The panel holds about 83,000 compounds, 20% with a hit somewhere; the sample as a whole holds those more often.
endpoint: growth (%)
Provide the reading as a plain figure in %.

Example results:
[
  {
    "compound": "CCN(CC)CC#CCOC(=O)[C@]1(C)CCC[C@]2(C)[C@H]3C[C@H]4C(C(C)C)=C[C@]3(CC[C@H]21)[C@@H]1C(=O)CCC(=O)[C@@H]14",
    "measurement_unit": "%",
    "growth": 45.7
  },
  {
    "compound": "Cc1c(Cl)cccc1NC(=O)c1sc2nc3c(cc2c1N)CCCCC3",
    "measurement_unit": "%",
    "growth": 19.7
  },
  {
    "compound": "O=C(CCCC(=O)Nc1ccc(-n2nnc3cc(Cl)c(Cl)cc32)cc1)Nc1ccc(-n2nnc3cc(Cl)c(Cl)cc32)cc1",
    "measurement_unit": "%",
    "growth": 84.5
  },
  {
    "compound": "O=C(NCc1ccccc1)c1ccc2c(c1)NC(=O)[C@@H]1CCCN21",
    "measurement_unit": "%",
    "growth": 98.3
  }
]

Here is the next item to consider.
# compound O=c1c2ccccc2oc2ccc(OCCCCCN3CCCCCC3)cc12 ; its growth = 77.8

----------
tested on: A549/ATCC NSCLC; assay: NCI-60 one-dose screen, 48 h (100 = growth as untreated, 0 = no growth, -100 = all killed); details: 10 µM unless noted
Compounds without any hit were thinned out: in the full panel of roughly 83,000, 20% have a hit.
List of growth values.
Provide the reading as a plain figure in %.

Example results:
[
  {
    "compound": "CSc1nc(-c2ccco2)c2c(N)[nH]nc2n1",
    "growth [%]": 100
  },
  {
    "compound": "COC(=O)/C=C/c1cc(OC(C)=O)c2c(c1)C(C(=O)OC)C(c1ccc(OC(C)=O)c(OC(C)=O)c1)O2 (stereo not drawn)",
    "growth [%]": 37.4
  },
  {
    "compound": "CC1CCN(CCCCCOc2ccc3oc4cc(Cl)ccc4c(=O)c3c2)CC1",
    "growth [%]": 68.6
  },
  {
    "compound": "Nc1ccccc1NS(=O)(=O)c1ccc(Cl)cc1",
    "growth [%]": 107
  }
]

# compound COc1ccc2cc(/C=C3\N=C(c4cc(OC)c(OC)c(OC)c4)OC3=O)c(OC)nc2c1 ; its growth = 96.7

# compound C#C[C@@]1(O)[C@@H](CO)O[C@@H](n2cc(Br)c3c(N)ncnc32)[C@@H]1O ; its growth = -51.8

# compound COc1cc(F)c(-c2nc3c(C)cccc3n2Cc2c(F)cccc2F)c(F)c1 ; its growth = 69.1

# compound COc1cc(C(=O)N2CCN(c3ccccc3OC)CC2)c(NC(=O)c2cnccn2)cc1OCc1ccccc1 ; its growth = 91.8

# compound O=[N+]([O-])c1ccc(Oc2ccc(-c3ccccc3)cc2)cc1 ; its growth = 91.5

# compound CN(C)CSc1nc2ccccc2s1 ; its growth = 101

# compound COc1ccc(-c2cs/c(=N\N=C\c3ccc(O)cc3O)n2/N=C/c2ccc(O)cc2O)cc1 ; its growth = -21.5

# compound COc1ccc(-c2cn(-c3ccc(Cl)cc3)c(=S)[nH]2)cc1OC ; its growth = 72

# compound C[C@H]1[C@H](C)CC[C@]2(C(=O)OCCOCCOCC[P+](c3ccccc3)(c3ccccc3)c3ccccc3)CC[C@]3(C)C(=CC[C@@H]4[C@@]5(C)CC[C@H](OC(=O)C(Cl)Cl)C(C)(C)[C@@H]5CC[C@]43C)[C@H]12 ; its growth = 11.2

# compound COc1cc(C(=O)Nc2cc(O)c(C/C=C(\C)CCC=C(C)C)c(O)c2)cc2c1O[C@]1(C)CC[C@@H](O)C(C)(C)[C@H]1C2 ; its growth = 11.9

# compound Nc1c(C(=O)Nc2ccccc2)sc2nc3c(cc12)CN(C(=O)OCc1ccccc1)CC3 ; its growth = 50.2

# compound O=C1CC(c2ccc(O)c(O)c2)Oc2cc(O)c([C@@H]3O[C@H](CO)[C@@H](O)[C@H](O)[C@H]3O)c(O)c21 (stereo partly drawn) ; its growth = 94.8

# compound CCN1CCC[C@H]1c1cc(O)c2c(c1OC)C[C@H]1C[C@H]3[C@H](N)C(=O)C(C(N)=O)=C(O)[C@@]3(O)C(=O)C1=C2O ; its growth = 6.12

# compound CC1CCCN(CCCCCOc2ccc3oc4ccccc4c(=O)c3c2)C1 (stereo not drawn) ; its growth = 68.7

----------
List of growth values.
tested on: MALME-3M melanoma; assay: NCI-60 one-dose screen, 48 h (100 = growth as untreated, 0 = no growth, -100 = all killed); conditions: 10 µM unless noted
The panel holds about 83,000 compounds, 20% with a hit somewhere; the sample as a whole holds those more often.
Provide the reading as a plain figure in %.

[
  {
    "compound": "CSc1nc(-c2ccco2)c2c(N)[nH]nc2n1",
    "growth / %": 119
  },
  {
    "compound": "CC(=O)OCC1SC(OC(C)=O)C(NC(=O)/C=C/CCl)C(OC(C)=O)C1OC(C)=O (stereo not given)",
    "growth / %": 99.6
  },
  {
    "compound": "C/C(=N/Nc1nc2ccccc2n1C)c1ccccn1",
    "growth / %": 11.6
  },
  {
    "compound": "COC1=CC=CC2(OC)C3(O)CCCc4cccc(c43)N3C(=O)COC132 (stereo not given)",
    "growth / %": 92.9
  }
]

Here is the next item to consider.
# compound COc1ccc2nc(-c3ccc(Cl)cc3)cc(-c3nnc(SC/C(=N/O)c4ccccc4)o3)c2c1 ; its growth = 25.5

----------
tested on: COLO 205 colon; assay: NCI-60 one-dose screen, 48 h (100 = growth as untreated, 0 = no growth, -100 = all killed); conditions: 10 µM unless noted
Compounds without any hit were thinned out: in the full panel of roughly 83,000, 20% have a hit. Calls of active or inactive are those of the source. Rule for the calls: active = growth percent below 10; inactive = the rest.
endpoint: growth

Example results:
[
  {
    "compound_structure": "C(=C\\c1cn(-c2ccccc2)nc1-c1ccccc1)/c1nnc(-c2c[nH]c3ccccc23)o1",
    "result": "31.8% (inactive)"
  },
  {
    "compound_structure": "CC(C)NS(=O)(=O)c1cccc(-c2ccc3c4c(n(CCCN(C)C)c(=O)c3c2)-c2ccccc2C4=O)c1",
    "result": "98.9% (inactive)"
  }
]

# compound C=C(C)[C@@H]1CC[C@]2(C(=O)O)CC[C@]3(C)[C@H](CC[C@@H]4[C@@]5(C)C[C@@H](CC#Cc6ccccc6)C(=O)C(C)(C)[C@@H]5CC[C@]43C)[C@@H]12 ; its growth = 20.8% (inactive)

# compound COc1ccc(-c2cc(-c3nnc(SCC(=O)Nc4ccc(C(C)=O)cc4)o3)c3ccccc3n2)cc1 ; its growth = 21.7% (inactive)

----------
tested on: OVCAR-4 ovarian; assay: NCI-60 one-dose screen, 48 h (100 = growth as untreated, 0 = no growth, -100 = all killed); conditions: 10 µM unless noted
Compounds without any hit were thinned out: in the full panel of roughly 83,000, 20% have a hit. The source made the active and inactive calls. How the source made its calls: active means growth percent below 10; inactive means the rest.
endpoint: growth

[
  {
    "molecule": "C#C[C@@]1(O)[C@@H](CO)O[C@@H](n2cc(-c3ccco3)c3c(N)ncnc32)[C@@H]1O",
    "tested_target": "OVCAR-4 ovarian",
    "endpoint": "growth",
    "result": "61.2% (inactive)"
  },
  {
    "molecule": "c1cc(CNC23CC4CC(CC(C4)C2)C3)cc(C[N+](Cc2cccc(CNC34CC5CC(CC(C5)C3)C4)c2)(Cc2cccc(CNC34CC5CC(CC(C5)C3)C4)c2)Cc2cccc(CNC34CC5CC(CC(C5)C3)C4)c2)c1 (stereo not drawn)",
    "tested_target": "OVCAR-4 ovarian",
    "endpoint": "growth",
    "result": "29.5% [42 µM] (inactive)"
  },
  {
    "molecule": "COc1ccc(-n2cc(COc3ccc4c5ccnc(C)c5n(CC(C)C)c4c3)nn2)cc1",
    "tested_target": "OVCAR-4 ovarian",
    "endpoint": "growth",
    "result": "65.9% (inactive)"
  },
  {
    "molecule": "CN1CCN(S(=O)(=O)O[C@@H]2C(=O)N(c3cc4c5ccccc5ccc4c4ccccc34)[C@H]2c2ccc(F)cn2)CC1",
    "tested_target": "OVCAR-4 ovarian",
    "endpoint": "growth",
    "result": "99.1% (inactive)"
  },
  {
    "molecule": "CCOC(=O)c1ccc(Nc2ncnc3ccc(NC(=O)c4ccccc4)cc23)cc1",
    "tested_target": "OVCAR-4 ovarian",
    "endpoint": "growth",
    "result": "89.2% (inactive)"
  },
  {
    "molecule": "Fc1ccc(N/N=C/c2ccc(-n3cccn3)cc2)cc1",
    "tested_target": "OVCAR-4 ovarian",
    "endpoint": "growth",
    "result": "95.6% (inactive)"
  },
  {
    "molecule": "CN(C)c1ccc(-c2ccc3[nH]c(=O)nc(-c4ccc(F)cc4)c3c2)cn1",
    "tested_target": "OVCAR-4 ovarian",
    "endpoint": "growth",
    "result": "66.5% (inactive)"
  }
]

Here is the next item to consider.
# molecule CSc1nc(-c2ccc(F)cc2)c(C#N)c(N2CCOCC2)n1 ; its growth = 90.6% (inactive)
